- Test system: Malme-3M
- test protocol: NCI tumour cell line growth inhibition, 48 h
Active and inactive are the calls of the source. Cut-off read from the data, not from the text of the source: active = GI50 up to about 1.1 µM and inactive = higher.
Respond with a class label; see T for active, F for inactive

See these solved cases before continuing.
molecule | label
N#CC1(C#N)C2C=CC(c3coc4cccc2c34)C1(C#N)C#N (centres undefined) | F
O=C(NN1C(=O)C(Cl)C1c1c(O)ccc2ccccc12)c1ccccc1O (centres undefined) | F
NNC(=O)c1c(-c2cccnc2)cnc2ccccc12 | F
COc1ccc(-c2nc(SCC(=O)N/N=C/c3ccc([N+](=O)[O-])cc3)[nH]c2-c2ccc(OC)cc2)cc1 | F
O=C(CN1CCOCC1)c1ccc2c(c1)oc(=O)n2CCN1CCOCC1 | F
CCn1c(=O)c2nc(SC)sc2n(-c2ccccc2)c1=S | F

Task item: Short answer needed: outcome of this test for COc1ccc2oc(=N)c(C(=O)Nc3cccc4ccccc34)cc2c1 ?
Reply: F

Task item: Short answer needed: outcome of this test for COc1cc(C(C)O)c[n+](Cc2ccccc2)c1 (centres undefined) ?
Reply: F

Task item: Short answer needed: outcome of this test for Cc1cc2c(cc1C)N1C(Cl)=C3CCCCC3=C(C#N)C1N2 (centres undefined) ?
Reply: F

---

- System: UACC-62
- test protocol: NCI tumour cell line growth inhibition, 48 h
Activity calls are given as the source filed them. Cut-off read from the data, not from the text of the source: active = GI50 up to about 1.1 µM and inactive = higher.
reported metric: GI50

compound | assay target | GI50
O=C1c2ccccc2C(=O)c2c1ccc1c3ccccc3n(-c3ccccc3)c21 | UACC-62 | 14.7 µM (inactive)
CC(=O)c1cccn1/C=C(\OC(=O)OC(C)(C)C)c1ccc[nH]1 | UACC-62 | 99.1 µM (inactive)

Task item: What does the data say about its GI50? Entry: CN1C(=O)C2C=CC1C1CCC2N(C)C1=O (stereo unspecified)
Reply: > 100 µM (inactive)

Task item: What does the data say about its GI50? Entry: CCOC(=O)c1c(CN2CCOCC2)n(Cc2ccccc2)c2c1cc(O)c1nc(C)c(C)nc12
Reply: 38.7 µM (inactive)

Task item: What does the data say about its GI50? Entry: CCCCC(C(=O)C(=O)Nc1ccccc1CC)C(=O)C(C)C (stereo unspecified)
Reply: > 100 µM (inactive)

Task item: What does the data say about its GI50? Entry: O=C1C=CC(=O)[C@H]2C3C=CC(C4C3C3(Cl)C(Cl)=C(Cl)[C@]4(Cl)C3(Cl)Cl)[C@@H]12 (stereo partly specified)
Reply: 8.83 µM (inactive)

---

Each record here notes measured GI50.
- Tested on: KM12
- test protocol: NCI tumour cell line growth inhibition, 48 h
Active and inactive are the calls of the source. Cut-off read from the data, not from the text of the source: active = GI50 up to about 1.1 µM and inactive = higher.

Here is how some compounds turned out for GI50.
compound | assay target | recorded value
Nc1nc(Br)nc2ncn(C3CC(O)C(CO)O3)c12 (stereo not given) | KM12 | > 100 µM (inactive)
CN(C)C(=S)C(Cl)(c1ccccc1)c1ccccc1 | KM12 | 46.3 µM (inactive)
O=C(O)C1CC(C2CCCCN2)CN2CCCCC12 (stereo not given) | KM12 | > 100 µM (inactive)
CCCCC1(NN=C2CCCCC2)C(=O)N(c2ccccc2)N(c2ccccc2)C1=O | KM12 | > 100 µM (inactive)

Task item: What does the data say about its GI50? Entry: N#Cc1cc(C#N)c(N)nc1N
Reply: > 100 µM (inactive)

---

- System: SF-268
- test protocol: NCI tumour cell line growth inhibition, 48 h
The source made the active and inactive calls. Rule as the data show it: active = GI50 up to about 1.1 µM and inactive = higher.
Respond with a class label; see true (active), false (inactive)

compound | label
COc1cc2c(c(OC)c1OC)-c1ccc(SC)cc1C(O)CC2 (centres undefined) | true
Nc1nc2[nH]cnc2c(=O)[nH]1 | false
COc1cc(CC(=O)c2cc3c(cc2-c2ccccc2)OCO3)cc(OC)c1OC | false
C=Cc1ccccc1C1(O)C=CC(OC)(OC)C=C1 | false
O/N=N/c1ccccn1.OCC1OC2OC3C(CO)OC(OC4C(CO)OC(OC5C(CO)OC(OC6C(CO)OC(OC7C(CO)OC(OC1C(O)C2O)C(O)C7O)C(O)C6O)C(O)C5O)C(O)C4O)C(O)C3O (centres undefined) | false
CS(=O)(=O)c1nc(Cl)c(Cl)c(C#N)c1Cl | false
O=C(CO)CC(=O)C(=O)Nc1cccc(C(F)(F)F)c1 | false
CC1CC(Br)C(=O)O1 (centres undefined) | false

Task item: Short answer needed: outcome of this test for Nc1nc(Nc2ccccc2)sc1C(=O)c1ccc(Cl)cc1 ?
Reply: false

Task item: Short answer needed: outcome of this test for Cc1nc(-n2nc(-c3ccccc3)cc2-c2ccccc2)sc1C(/C=C/c1ccc([N+](=O)[O-])cc1)=N/NC(N)=S ?
Reply: false

Task item: Short answer needed: outcome of this test for C[C@@]12C[C@@H](c3ccccc3O1)N1CCCCSC1=N2 ?
Reply: false

Task item: Short answer needed: outcome of this test for Cc1cc2c(C)nn(Cc3ccc(Cl)cc3Cl)c2c(C#N)c1C ?
Reply: false

Task item: Short answer needed: outcome of this test for COC(=O)[C@@H]1CC(C(CN)c2cn(C(=O)OC(C)(C)C)c3ccccc23)C(=O)N1C(=O)OC(C)(C)C (some centres undefined) ?
Reply: false

Task item: Short answer needed: outcome of this test for COc1cc2ccnc3c2c(c1OC)N(C)C=C3 ?
Reply: false
